# target_of_assay: Prp43 R159A (UniProt P53131 1-767, R159A)
# assay_explanation: filter binding
endpoint: pKd
// pKd: -log10(molar conc.)

Lookup result for GACGGGCUGUUGGUGAUGGAC (ssRNA) [21-mer ssRNA] ; measured pKd: 8.52
